target: full length human Shh expressed on the cell surface (human, UniProt Q15465 24-462); assay: cell-based or functional assay
assay-endpoint: % Inhibition of Gli1 reporter, Co-Culture N = 3, 20 µg/ml (%)
Give the quantity in %, number only.

Example binders with recorded % Inhibition of Gli1 reporter, Co-Culture N = 3, 20 µg/ml:
1G12 (antibody, V domains shown, fully human XenoMouse hybridoma antibody; tested as hybridoma supernatant and as purified antibody; also called MAb 1G12) VH: QVQLVESGGGVVQPGRSLRLSCAASGFTFSTYGMHWVRQAPGKGLEWVAVIWYDGSNKYYADSVNGRFTISRDNSKNTLYLQMNSLRGEDTAVYYCARDLYYYGSGSPFDYWGQGTLVTVSS VL: EIVMTQSPATLSVSPGERVTLSCRASQSVSSNLAWYQQKPGQAPRLLIYGVSIRATGIPARFSGSGSGTEFTLTISSLQSEDFAVYYCQQYDNWPRPGFGGGTKVEIK = 28
1A5 (antibody, V domains shown, fully human XenoMouse hybridoma antibody; tested as hybridoma supernatant and as purified antibody; also called MAb 1A5) VH: EVQVVESGGDLIQPGGSLRLSCVASGFTVSSNYMNWVRQAPGKGLEWVSVIYSGGNTYYADSVKGRFTISRDNSKNTLYLQMNSLRAEDTAVYYCARDSSVVVGLGYFDLWGRGTLVTVSS VL: SYELTQPPSVSVSPGQTASITCSGDKLGANYASWYQQKPGQSPVLVIFQDTKRPSGIPERFSGSNSGNTATLTISGTQAMDEADYYCQAWDFSTVIFGGGTKLTVL = 20
1C8 (antibody, V domains shown, fully human XenoMouse hybridoma antibody; tested as hybridoma supernatant and as purified antibody; also called MAb 1C8) VH: EVQLVESGGGLIQPGGSLRLSCAVSGFTVSSNCMNWVRQAPGKGLEWVSVIYSGGKTAYADSVKGRFTISRDNSKNTLCLQMNSLRAEDTAVYYCARDSSMVVGLGYFDLWGRGTLVTVSS VL: SYELTQPPSVSVSPGLTASITCSGDKLGYKYASWYQQKPGQSPVLVIYQDIKRPSGIPERFSGSNSGNTATLTISGTQAMDEADYYCQAWDSSTVVFGGGTKLTVL = 23

Exam item: Provide measured % Inhibition of Gli1 reporter, Co-Culture N = 3, 20 µg/ml value, entry: 4B6 (antibody, V domains shown, fully human XenoMouse hybridoma antibody; tested as hybridoma supernatant and as purified antibody; also called MAb 4B6) VH: QVQLVESGGGVVQPGRSLRLSCAASGFTFSTYGMHWVRQAPGKGLEWVAVIWYDGSNEYYADSVKGRFTISRDNSKNTLYLQMNSLRAEDTAVYYCARDLYYYGSGSPFDYWGQGTLVTVSS VL: EIVMTQSPATLSVSPGERATLSCRASQSVSSNLAWYQQKPGQAPRLLIFGISIRATGIPARFSGSGSGTEFTLTISSLQSEDFAVYYCQQYNDWPRPGFGGGTRVEIK
Marked response: 22

Exam item: Answer with the recorded % Inhibition of Gli1 reporter, Co-Culture N = 3, 20 µg/ml for the binder listed here: 1H12 (antibody, V domains shown, fully human XenoMouse hybridoma antibody; tested as hybridoma supernatant and as purified antibody; also called MAb 1H12) VH: QVQLVQSGAEVKKPGASVKVSCKASGYTFTGYYMHWVRQAPGQGLEWVGWFNPNSGGTNCAQKFQGRVTMTRDTSISTAYMELSRLRSDDTAVYYCAREAVESYYYGLDVWGQGTTVTVSS VL: QSVVTQPPSASGTPGQRITISCSGSSSNIGSNYVYWYHQLPGSAPNLLIYRNNQRPSGVPDRFSGSKSGTSASLAISGLRSEDEADYFCAVWDDSLRGVVFGGGTKLTVL
Marked response: 13

Exam item: Entry 1G1 (antibody, V domains shown, fully human XenoMouse hybridoma antibody; also called MAb 1G1) VH: EVQLVESGGGLVKPGGSLRLSCAASGFTFSSYSMNWVRQAPGKGLEWVSSFSSSSSYIYYADSVKGRFTISRDNAKNSLYLQMNSLRAEDTAVYYCARDRGDYVDYYYGMDVWGQGTTVTVSS VL: SYELTQPPSVSVSPGQTASITCSGDKLDYKYICWYQQKPGQSPVLVIYQDIKRPSGIPERFSGSNSGNTATLTISGTQAMDEADYYCQAWDSNTPLVFGGGTKLTVL needs its % Inhibition of Gli1 reporter, Co-Culture N = 3, 20 µg/ml filled in; supply it.
Marked response: 19

Exam item: Kindly indicate its recorded % Inhibition of Gli1 reporter, Co-Culture N = 3, 20 µg/ml. Item: 1H10 (antibody, V domains shown, fully human XenoMouse hybridoma antibody; tested as hybridoma supernatant and as purified antibody; also called MAb 1H10) VH: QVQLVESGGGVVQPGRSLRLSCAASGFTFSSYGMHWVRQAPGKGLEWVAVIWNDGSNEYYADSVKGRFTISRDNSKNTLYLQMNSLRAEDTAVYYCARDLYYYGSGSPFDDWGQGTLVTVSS VL: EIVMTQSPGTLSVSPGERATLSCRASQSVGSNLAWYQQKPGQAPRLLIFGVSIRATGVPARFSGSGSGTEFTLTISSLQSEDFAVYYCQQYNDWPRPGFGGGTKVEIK
Marked response: 4

Exam item: Answer with the recorded % Inhibition of Gli1 reporter, Co-Culture N = 3, 20 µg/ml of 1A12 (antibody, V domains shown, fully human XenoMouse hybridoma antibody; tested as hybridoma supernatant and as purified antibody; also called MAb 1A12) VH: QVYLVESGGGVVQPGRSLRLSCAASGFTFSSYGMHWVRQAPGKGLEWVAVIWYDGSNEYYADSVKGRFTISRDNSKNTLYLQMNSLRAEDTAVYYCARDLYYYGSGSPFDYWGQGTLVTVSS VL: EIVMTQSPATLSVSPGERATLSCRASQSVSSNLAWYQQKPGQAPRLLIFGVSIRATGIPARFSGSGSGTEFTLTISSLQSEDFAVYYCQQYNDWPRPGFGGGTKVEIK only.
Marked response: 22
